target: Histamine H3 receptor (Homo sapiens, UniProt Q9Y5N1); assay: Displacement of [125I]Iodoproxyfan from human histamine H3 receptor expressed in HEK293 cells; type: cell-based
Sequence (Q9Y5N1 whole entry): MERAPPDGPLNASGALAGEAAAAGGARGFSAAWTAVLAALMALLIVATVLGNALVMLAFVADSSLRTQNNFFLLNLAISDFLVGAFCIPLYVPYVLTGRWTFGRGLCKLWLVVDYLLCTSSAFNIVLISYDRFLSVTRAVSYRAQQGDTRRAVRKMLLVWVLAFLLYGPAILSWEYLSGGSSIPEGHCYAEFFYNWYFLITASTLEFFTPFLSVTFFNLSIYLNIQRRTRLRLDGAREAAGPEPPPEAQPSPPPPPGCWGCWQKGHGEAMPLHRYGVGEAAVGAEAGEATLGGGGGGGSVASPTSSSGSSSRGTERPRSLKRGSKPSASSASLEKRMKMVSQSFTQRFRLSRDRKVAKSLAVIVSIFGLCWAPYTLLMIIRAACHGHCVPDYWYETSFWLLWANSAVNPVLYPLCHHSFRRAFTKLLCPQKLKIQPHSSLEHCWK
In plain terms, low Ki, meaning strictly below 60 nM, gives class 1, and everything else gives class 0.

[
  {
    "chemical string": "c1ccc(-c2nc(SCCCN3CCCCC3)oc2-c2ccccc2)cc1",
    "category label": "class 1"
  },
  {
    "chemical string": "c1ccc(-c2nc(SCCCN3CCCCC3)sc2-c2ccccc2)cc1",
    "category label": "class 1"
  },
  {
    "chemical string": "C1CCN(CCCOc2nc3c(s2)CN(CCCN2CCCCC2)CC3)CC1",
    "category label": "class 1"
  },
  {
    "chemical string": "c1ccc(-c2cnc(CCCCN3CCCCC3)o2)cc1",
    "category label": "class 0"
  },
  {
    "chemical string": "CC(=O)c1sc(SCCCN2CCCCC2)nc1C",
    "category label": "class 0"
  },
  {
    "chemical string": "c1cc(-c2nnc(SCCCN3CCCCC3)o2)ccn1",
    "category label": "class 0"
  },
  {
    "chemical string": "c1cncc(-c2noc(CCCCN3CCCCC3)n2)c1",
    "category label": "class 0"
  }
]
